assay.target: T1, Human Id1: Histidine (human, UniProt P41134 1-155, limits assumed)
T1 construct: Fusion protein made in E. coli from vector pGW07; also called h-Id1: his; not shown: His tag
T1 sequence (looked up): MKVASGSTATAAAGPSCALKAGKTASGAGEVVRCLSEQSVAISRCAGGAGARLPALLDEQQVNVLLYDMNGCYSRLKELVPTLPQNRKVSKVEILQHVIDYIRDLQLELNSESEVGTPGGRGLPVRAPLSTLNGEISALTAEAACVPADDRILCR
measurement.protocol: ELISA, Ab 0.005 µg/ml
# A450 listing for each entry below
measure: A450

{"binder": "rabbit monoclonal anti-mouse/human Id3, clone #BCH-4/#17-3 (antibody, V domains shown, Rabbit IgG from a rabbit hybridoma; also called m/h Id3 MoAb 17-3; BCH-3/#17-3) VH: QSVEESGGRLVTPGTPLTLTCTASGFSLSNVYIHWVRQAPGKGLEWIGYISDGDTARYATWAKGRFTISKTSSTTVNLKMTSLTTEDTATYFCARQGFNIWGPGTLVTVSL VL: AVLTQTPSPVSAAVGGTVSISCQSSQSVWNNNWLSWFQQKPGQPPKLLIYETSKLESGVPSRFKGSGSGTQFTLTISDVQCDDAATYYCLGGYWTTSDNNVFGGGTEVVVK", "measure": "A450", "recorded.result": "0.044 A450"}
{"binder": "rabbit monoclonal anti-mouse/human Id3, clone #BCH-4/#16-1 (antibody, V domains shown, Rabbit IgG from a rabbit hybridoma; also called m/h Id3 MoAb 16-1) VH: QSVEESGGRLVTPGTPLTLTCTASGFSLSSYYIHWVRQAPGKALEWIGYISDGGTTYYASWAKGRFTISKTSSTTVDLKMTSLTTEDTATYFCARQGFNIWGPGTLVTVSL VL: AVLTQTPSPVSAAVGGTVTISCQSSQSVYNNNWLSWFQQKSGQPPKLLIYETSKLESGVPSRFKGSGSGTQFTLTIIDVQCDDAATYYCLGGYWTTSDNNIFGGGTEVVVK", "measure": "A450", "recorded.result": "0.042 A450"}
{"binder": "rabbit monoclonal anti-mouse/human Id3, clone #BCH-4/#6-1 (antibody, V domains shown, Rabbit IgG from a rabbit hybridoma; also called m/h Id3 MoAb 6-1) VH: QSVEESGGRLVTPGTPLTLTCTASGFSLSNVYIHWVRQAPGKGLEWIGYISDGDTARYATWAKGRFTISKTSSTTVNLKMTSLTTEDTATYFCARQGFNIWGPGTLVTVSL VL: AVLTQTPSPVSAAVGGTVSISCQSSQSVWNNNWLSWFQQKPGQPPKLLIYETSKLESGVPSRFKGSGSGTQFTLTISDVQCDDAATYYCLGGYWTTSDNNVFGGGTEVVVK", "measure": "A450", "recorded.result": "0.044 A450"}
